The measured values listed here are drawn from patent US20230021483A1.

System: adjuvant-associated biological themes in LV, SP, LN
Conditions: LV, ID
Each entry below carries its recorded GO annotation: regulation of cell death (Term: cell death).
Respond using a number only.

Nc1nc2c(ncn2[C@@H]2O[C@@H]3COP(=O)(O)O[C@H]4[C@@H](O)[C@H](n5cnc6c(N)ncnc65)O[C@@H]4COP(=O)(O)O[C@@H]2[C@@H]3O)c(=O)[nH]1 [cGAMP, Cyclic [G(2′,5′)pA(3′,5′)p]] | 3.82

Request: Which GO annotation: regulation of cell death (Term: cell death) value belongs to "Cc1ccc2c(=O)c3cccc(CC(=O)O)c3oc2c1C" ?
Result: 0

Request: Field entry: Nc1nc2c(ncn2[C@@H]2O[C@@H]3COP(=O)(O)O[C@H]4[C@@H](O)[C@H](n5cnc6c(=O)[nH]c(N)nc65)O[C@@H]4COP(=O)(O)O[C@H]3[C@H]2O)c(=O)[nH]1 [cdiGMP, Cyclic diguanylate monophosphate]
Result: 4.48

Request: Field entry: CC(O)COC[C@H]1O[C@@H]2O[C@H]3[C@H](O)[C@@H](O)[C@@H](O[C@H]4[C@H](O)[C@@H](O)[C@@H](O[C@H]5[C@H](O)[C@@H](O)[C@@H](O[C@H]6[C@H](O)[C@@H](O)[C@@H](O[C@H]7[C@H](O)[C@@H](O)[C@@H](O[C@H]8[C@H](O)[C@@H](O)[C@@H](O[C@H]1[C@H](O)[C@H]2O)O[C@@H]8COCC(C)O)O[C@@H]7COCC(C)O)O[C@@H]6COCC(C)O)O[C@@H]5COCC(C)O)O[C@@H]4COCC(C)O)O[C@@H]3COCC(C)O (stereo partly drawn) [bCD, Hydroxypropyl-beta-cyclodextrin]
Result: 0
